- System: U2OS
- ASSAY: cell viability relative to DMSO; higher = less toxic
- CONDITION_SET: 72 h; 1000 nM
READOUT_NAME: cell viability (%)
Write the number in % without appending the unit.

Consider the worked cases shown below.
>>> measured_result("Cn1cc(C(=O)c2cccc3ccccc23)cc1C(=O)O [napirimus]")
98.3
>>> measured_result("Cc1ccc([N+](=O)[O-])cc1S(=O)(=O)N(C)C")
92.6

Could you now consider this next molecule?
Name the reported cell viability value associated with the molecule CCOC(=O)c1c[nH]cn1 [C-751]
102

---

- System: HepG2
- ASSAY: cell viability relative to DMSO; higher = less toxic
- CONDITION_SET: 72 h; 1 nM
READOUT_NAME: cell viability (%)
Write the number in % without appending the unit.

>>> measured_result("OC[C@H]1O[C@H](O)C[C@@H](O)[C@@H]1O")
93.2
>>> measured_result("O=C1CN=C(c2cccc(Br)c2)c2oc3ccccc3c2N1")
98.3

Now, please, on to the next compound.
Which cell viability value is on record for `Cc1n[nH]c2ccc(-c3cncc(OC[C@@H](N)Cc4ccccc4)c3)cc12` ?
103
